# System: HIV in the HTLV-1 transformed cell line MT-4
# testMethodNotes: organism not typed
# Type: cell-based
# experimentalSetup: MT4, 96 h, MT-4 cells; luciferase/cell titer glo readout after 96 hours; 10 point dose response
Listing: log10 of IC50 of selected compounds
Hey, these are logged values: log10 of IC50, nM being the unit before logging.

>  <compound>
Cc1c(-c2c(C)c3c(c(C)c2[C@H](OC(C)(C)C)C(=O)O)CN(C(=O)CC(C)(C)C)C3)cc(F)c2c1CCCO2 (atropisomer, axis not shown; (M)) [Example 104]

>  <endpointValue>
0.30

$$$$
>  <compound>
Cc1ccc(-c2c(C)c3c(c(C)c2[C@H](OC(C)(C)C)C(=O)O)CN(C(=S)N2CCCCC2)C3)cc1 [Example 131]

>  <endpointValue>
1.28

$$$$
>  <compound>
Cc1c(-c2c(C)c3c(c(C)c2[C@H](OC(C)(C)C)C(=O)O)CN(C(=O)N2CCC(C)(C)CC2)C3)cc(F)c2c1CCCO2 (atropisomer, axis not shown; (M)) [Example 211]

>  <endpointValue>
0.70

$$$$
>  <compound>
Cc1ccc(-c2c(C)c3c(c(C)c2[C@H](OC(C)(C)C)C(=O)O)CN(S(=O)(=O)NC(C)C)C3)cc1 [Example 51]

>  <endpointValue>
1.64

$$$$
>  <compound>
Cc1ccc(-c2c(C)c3c(c(C)c2[C@H](OC(C)(C)C)C(=O)O)CN(C(=O)C2(C)CCCCC2)C3)cc1 [Example 243]

>  <endpointValue>
1.26

$$$$
>  <compound>
Cc1ccc(-c2c(C)c3c(c(C)c2[C@H](OC(C)(C)C)C(=O)O)CN(C(=O)c2ccn(C)n2)C3)cc1 [Example 240]

>  <endpointValue>
2.08

$$$$
>  <compound>
Cc1ccc(Cl)cc1C(=O)N1Cc2c(C)c(-c3cc(F)c4c(c3C)CCCO4)c([C@H](OC(C)(C)C)C(=O)O)c(C)c2C1 (atropisomer, axis not shown; (M)) [Example 185]

>  <endpointValue>
0.60

$$$$
>  <compound>
Cc1ccc(-c2c(C)c3c(c(C)c2[C@H](OC(C)(C)C)C(=O)O)CN(C(=O)NC(C)(C)c2ccccc2)C3)cc1 [Example 97]

>  <endpointValue>
2.16

$$$$

Consider Cc1ccc(-c2c(C)c3c(c(C)c2[C@H](OC(C)(C)C)C(=O)O)CN(C(=O)NC2CCCCC2)C3)cc1 [Example 4] . Its measured log10 of IC50 is 1.52

Consider COc1cccc(CN2Cc3c(C)c(-c4ccc(C)cc4)c([C@H](OC(C)(C)C)C(=O)O)c(C)c3C2)c1 [Example 24] . Its measured log10 of IC50 is 1.08

Consider COc1cc(F)cc(C(=O)N2Cc3c(C)c(-c4cc(F)c5c(c4C)CCCO5)c([C@H](OC(C)(C)C)C(=O)O)c(C)c3C2)c1 (atropisomer, axis not shown; (M)) [Example 140] . Its measured log10 of IC50 is 0.30

Consider Cc1ccc(-c2c(C)c3c(c(C)c2[C@H](OC(C)(C)C)C(=O)O)CN(C(=O)N2CCC(Cc4ccccc4)CC2)C3)cc1 [Example 95] . Its measured log10 of IC50 is 2.89

====

Listing: log10 IC50 of selected molecules
# Tested on: HIV in the HTLV-1 transformed cell line MT-4
# testMethodNotes: organism not typed
# Format: cell-based
# experimentalSetup: MT4, 96 h, MT-4 cells; luciferase/cell titer glo readout after 96 hours; 10 point dose response
Hey, these are logged values: log10 of IC50, nM being the unit before logging.

>  <molecule>
Cc1ccc(-c2c(C)c3c(c(C)c2[C@H](OC(C)(C)C)C(=O)O)CN(C(=O)c2cnccc2C)C3)cc1 [Example 260]

>  <log10 IC50>
1.18

$$$$

Field log10 IC50 (HIV in the HTLV-1 transformed cell line MT-4), entry Cc1ccc(-c2c(C)c3c(c(C)c2[C@H](OC(C)(C)C)C(=O)O)CN(C(=O)c2cccc(C(C)(C)C)c2)C3)cc1 [Example 230] : 2.05

Field log10 IC50 (HIV in the HTLV-1 transformed cell line MT-4), entry Cc1ccc(-c2c(C)c3c(c(C)c2[C@H](OC(C)(C)C)C(=O)O)CN(C2CCC(C)(C)CC2)C3)cc1 [Example 14] : 2.07

Field log10 IC50 (HIV in the HTLV-1 transformed cell line MT-4), entry Cc1ccc(-c2c(C)c3c(c(C)c2[C@H](OC(C)(C)C)C(=O)O)CN(Cc2nc(C)c[nH]2)C3)cc1 [Example 23] : 2.31

Field log10 IC50 (HIV in the HTLV-1 transformed cell line MT-4), entry Cc1ccc(-c2c(C)c3c(c(C)c2[C@H](OC(C)(C)C)C(=O)O)CN(C(=O)N2CCCC(C)(C)C2)C3)cc1 [Example 93] : 0.85

Field log10 IC50 (HIV in the HTLV-1 transformed cell line MT-4), entry Cc1cc(Cl)ccc1-c1c(C)c2c(c(C)c1C(OC(C)(C)C)C(=O)O)CN(C(=O)N1CCC(F)(F)C1)C2 (stereo not shown) [Example 323] : 1.11

Field log10 IC50 (HIV in the HTLV-1 transformed cell line MT-4), entry Cc1ccc(-c2c(C)c3c(c(C)c2[C@H](OC(C)(C)C)C(=O)O)CN(C(=O)c2cccc(F)c2C)C3)cc1 [Example 221] : 0.60

Field log10 IC50 (HIV in the HTLV-1 transformed cell line MT-4), entry COc1ccc(C(=O)N2Cc3c(C)c(-c4cc(F)c5c(c4C)CCCO5)c([C@H](OC(C)(C)C)C(=O)O)c(C)c3C2)c(C)c1 (atropisomer, axis not shown; (M)) [Example 286] : 1.04

Field log10 IC50 (HIV in the HTLV-1 transformed cell line MT-4), entry COc1cncc(C(=O)N2Cc3c(C)c(-c4ccc(C)cc4)c([C@H](OC(C)(C)C)C(=O)O)c(C)c3C2)c1 [Example 235] : 0.70

Field log10 IC50 (HIV in the HTLV-1 transformed cell line MT-4), entry Cc1c(-c2c(C)c3c(c(C)c2[C@H](OC(C)(C)C)C(=O)O)CN(C(=O)c2cccc4c2CCC4)C3)cc(F)c2c1CCCO2 (atropisomer, axis not shown; (M)) [Example 161] : 0.48

Field log10 IC50 (HIV in the HTLV-1 transformed cell line MT-4), entry Cc1ccc(-c2c(C)c3c(c(C)c2[C@H](OC(C)(C)C)C(=O)O)CN(C(=O)N2CCC(F)(F)C2)C3)cc1 [Example 68] : 0.90

Field log10 IC50 (HIV in the HTLV-1 transformed cell line MT-4), entry COc1cccc(C(=O)N2Cc3c(C)c(-c4ccc(C)cc4)c([C@H](OC(C)(C)C)C(=O)O)c(C)c3C2)c1 [Example 114] : 0.70

Field log10 IC50 (HIV in the HTLV-1 transformed cell line MT-4), entry Cc1ccc(-c2c(C)c3c(c(C)c2[C@H](OC(C)(C)C)C(=O)O)CN(C(=O)C(C)(C)C(F)(F)F)C3)cc1 [Example 241] : 1.40

====

# Tested on: HIV in the HTLV-1 transformed cell line MT-4
# testMethodNotes: organism not typed
# Format: cell-based
# experimentalSetup: MT4, 96 h, MT-4 cells; luciferase/cell titer glo readout after 96 hours; 10 point dose response
quantity: pIC50
When answering, recall that pIC50 equals minus log10 of the concentration in mol/L, and write that number alone.

Look over these answered cases.
>  <compound>
Cc1ccc(-c2c(C)c3c(c(C)c2[C@H](OC(C)(C)C)C(=O)O)CN(C(=O)C(=O)N2CCOC[C@H]2C)C3)cc1 [Example 130]

>  <pIC50>
7.39

$$$$
>  <compound>
Cc1ccc(-c2c(C)c3c(c(C)c2[C@H](OC(C)(C)C)C(=O)O)CN(CC(=O)N2CCCCC2)C3)cc1 [Example 127]

>  <pIC50>
6.50

$$$$
>  <compound>
Cc1ccc(-c2c(C)c3c(c(C)c2[C@H](OC(C)(C)C)C(=O)O)CN(C(=O)NCc2ccccc2)C3)cc1 [Example 34]

>  <pIC50>
7.07

$$$$

Consider Cc1ccc(-c2c(C)c3c(c(C)c2[C@H](OC(C)(C)C)C(=O)O)CN(C(=O)c2ccnn2C)C3)cc1 [Example 223] . Its measured pIC50 is 7.89

Consider Cc1c(-c2c(C)c3c(c(C)c2[C@H](OC(C)(C)C)C(=O)O)CN(C(=O)c2cc(F)cc(F)c2)C3)cc(F)c2c1CCCO2 (atropisomer, axis not shown; (M)) [Example 170] . Its measured pIC50 is 8.70

Consider Cc1ccc(-c2c(C)c3c(c(C)c2[C@H](OC(C)(C)C)C(=O)O)CN(C(=O)c2cccnc2C)C3)cc1 [Example 259] . Its measured pIC50 is 7.70

Sourced from patent US10112899B2
